# Method Notes: qHTS assay to test for compound auto fluorescence at 460 nm (blue) in HepG2 cell free culture (AID 720685)
# Test Parameters: Cell-free culture medium, blue autofluorescence 405/460 nm; series mostly up to 91.3 µM
Active and inactive are the calls of the source. Calls follow the shape of the dose curve; as a rule, active = well fitted curve in the direction sought with a large enough effect in the repeat runs; inconclusive = weak or mixed curves; inactive = flat fitted curve, though single readings scatter.
Measured Parameter: fluorescence, % of fluorescent control

Record excerpt, results attached:
compound_structure_string=N#CSCSc1nc2ccccc2s1 measurement=inactive
compound_structure_string=CC(C)(C)c1cc(/C=C2\SC(=N)NC2=O)cc(C(C)(C)C)c1O measurement=inactive
compound_structure_string=O=C1C=CC(=O)N1c1ccccc1 measurement=inactive
compound_structure_string=CC(C)=C1CC[C@@H](C)CC1=O measurement=inactive
compound_structure_string=O=C(Nc1ccc(Cl)cc1)Nc1ccc(Cl)c(C(F)(F)F)c1 measurement=inactive

Return reported fluorescence, % of fluorescent control; argument: C/C=C/C=N/NC(=O)c1ccncc1 inactive

Return reported fluorescence, % of fluorescent control; argument: CCOC(=O)C1=C(C)NC(C)=C(C(=O)OCC)C1c1ccccc1/C=C/C(=O)OC(C)(C)C inactive

###

# Target Under Test: Aromatase (Homo sapiens) (UniProt P11511)
# Sequence (P11511 whole entry, looked up): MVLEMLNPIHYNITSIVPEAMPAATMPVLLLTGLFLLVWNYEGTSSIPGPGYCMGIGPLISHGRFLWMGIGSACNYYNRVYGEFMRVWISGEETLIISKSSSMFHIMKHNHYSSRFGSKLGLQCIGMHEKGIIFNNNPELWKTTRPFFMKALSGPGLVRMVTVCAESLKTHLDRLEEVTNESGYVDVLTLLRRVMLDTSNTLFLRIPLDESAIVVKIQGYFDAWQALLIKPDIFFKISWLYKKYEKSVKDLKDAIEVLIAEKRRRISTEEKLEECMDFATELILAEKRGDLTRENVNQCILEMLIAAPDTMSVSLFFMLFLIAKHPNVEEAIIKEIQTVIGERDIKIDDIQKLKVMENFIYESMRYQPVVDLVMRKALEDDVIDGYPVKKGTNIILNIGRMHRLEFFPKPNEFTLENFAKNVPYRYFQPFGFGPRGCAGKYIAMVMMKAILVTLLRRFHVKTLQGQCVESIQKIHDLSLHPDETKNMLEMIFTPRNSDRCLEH
# Method Notes: qHTS assay to identify aromatase inhibitors (AID 743083); also: nearly all actives have a fitted effect of over 55% in size
# Test Parameters: MCF-7 aro ERE, testosterone-driven ERE luciferase, 24 h; series mostly up to 70.3 µM
Inconclusive results are not listed. Activity calls are given as the source filed them. Calls come from the whole dose curve; as a rule, active = well fitted inhibition curve with a large enough effect in the repeat runs; inconclusive = weak or mixed curves; inactive = no such curve, though single readings can be large or run the other way.
Respond using exactly one of the listed classes: active, inactive

Given O=S(=O)(O)CCCN1CCOCC1 , state the outcome it received in this test. inactive

Given Clc1ccc(C(Cn2ccnc2)OCc2c(Cl)cccc2Cl)c(Cl)c1 (stereo unspecified) , state the outcome it received in this test. active

Given O=C(O)Cc1ccc(OCCNC[C@H](O)c2ccccc2)cc1 , state the outcome it received in this test. inactive

Given Cc1cc2c(C(C)C)c(O)c(O)c(C=O)c2c(O)c1-c1c(C)cc2c(C(C)C)c(O)c(O)c(C=O)c2c1O , state the outcome it received in this test. active

Given CCCCCCC(C)Nc1ccc(Nc2ccccc2)cc1 (stereo unspecified) , state the outcome it received in this test. inactive

Given O=C1c2c(O)ccc([N+](=O)[O-])c2C(=O)c2c([N+](=O)[O-])ccc(O)c21 , state the outcome it received in this test. active

###

# Method Notes: qHTS assay for small molecule agonists of the antioxidant response element (ARE) signaling pathway - cell viability counter screen (AID 743203); also: nearly all actives have a fitted effect of over 55% in size
# Test Parameters: ARE-bla HepG2 viability, CellTiter-Glo luminescence, 16 h; series mostly up to 73.3 µM
# Text: National Center for Advancing Translational Sciences [NCATS] NIH Chemical Genomics Center [NCGC] U.S. Environmental Protection Agency [EPA] National Institutes of Environmental Health Sciences [NIEHS] National Toxicology Program [NTP] U.S. Food and Drug Administration [FDA] Oxidative stress has been implicated in the pathogenesis of a variety of diseases ranging from cancer to neurodegeneration. […] The activation of the report gene under culture conditions can be detected by fluorescence intensity. […]
Inconclusive results are not listed. The source made the active and inactive calls. Calls come from the whole dose curve.
Respond using exactly one of the listed classes: true for active, false for inactive

Given Cc1cccc(Br)c1 , state the outcome it received in this test. false

Given CCN(CC)CCOc1ccc(C(O)(Cc2ccc(Cl)cc2)c2ccc(C)cc2)cc1 (configuration not stated) , state the outcome it received in this test. true

Given CCCCOc1ccc(C(=O)CCN2CCCCC2)cc1 , state the outcome it received in this test. true

Given C=CC(=O)OCCC#N , state the outcome it received in this test. false

Given CN(Cc1cc(Br)cc(Br)c1N)C1CCCCC1 , state the outcome it received in this test. false

Given CN(C)c1ccc(N=Nc2ccccc2C(=O)O)cc1 , state the outcome it received in this test. true

Given CCCCCCCCCCCCN(CCO)CCO , state the outcome it received in this test. true

###

# Method Notes: qHTS RealTime-Glo MT Cell Viability Assay in HEK293 cells - 32 hour (AID 1224868); also: nearly all actives have a fitted effect of over 50% in size
# Test Parameters: RealTime-Glo luminescence; series mostly up to 76.8 µM
# Description: National Center for Advancing Translational Sciences [NCATS] NIH Chemical Genomics Center [NCGC] U.S. Environmental Protection Agency [EPA] National Institutes of Environmental Health Sciences [NIEHS] National Toxicology Program [NTP] U.S. Food and Drug Administration [FDA] Measure of cell viability is critical in the cell-base assay. Analysis of cell viability is necessary for the characterization of cell responses to cytotoxic drugs and environmental stress. […]
Inconclusive results are not listed. Active and inactive are the calls of the source. The call rests on the fitted dose curve; in most records, active means well fitted cell-killing curve with a large enough effect in the repeat runs; inconclusive means weak or mixed curves, or effect the other way; inactive means flat fitted curve, though single readings scatter.
Respond using exactly one of the listed classes: active, inactive

Given CCN=C1C=CC(=C(c2ccc(N(CC)CC)cc2)c2ccc(N(CC)CC)cc2)c2ccccc21 , state the outcome it received in this test. active

Given CC(C)(C)C1=CC(=O)C=C(C(C)(C)C)C1=O , state the outcome it received in this test. inactive

Given Oc1ccc(-c2ccccc2)c(Cl)c1 , state the outcome it received in this test. active

Given CCCCCCS , state the outcome it received in this test. inactive

Given c1ccc(Nc2cccc3ccccc23)cc1 , state the outcome it received in this test. inactive

Given Cc1cccc(C)n1 , state the outcome it received in this test. inactive

Given CCc1cccc(CC)c1N(COC)C(=O)CS(=O)(=O)O , state the outcome it received in this test. inactive

###

# Method Notes: qHTS assay for small molecules that induce genotoxicity in human embryonic kidney cells expressing luciferase-tagged ATAD5 - cell viability (AID 651634); also: nearly all actives have a fitted effect of over 25% in size
# Test Parameters: HEK293T ATAD5-luc cells viability, CellTiter-Fluor, 15.5 h; series mostly up to 83.3 µM
Results filed as inconclusive are left out. Active and inactive are the calls of the source. Calls follow the shape of the full dose curve.
Respond using exactly one of the listed classes: active, inactive

Given CCOC(=O)COc1ccc(C)cc1 , state the outcome it received in this test. inactive

Given CCOC(=O)N1CCC(=C2c3ccc(Cl)cc3CCc3cccnc32)CC1 , state the outcome it received in this test. active

Given CN(C)c1ccc(N=Nc2ccccc2C(=O)O)cc1 , state the outcome it received in this test. active

Given CCCCCCC(C)Nc1ccc(Nc2ccccc2)cc1 (stereo unspecified) , state the outcome it received in this test. inactive

Given CC1(C)C(=O)N(Br)C(=O)N1Br , state the outcome it received in this test. inactive

Given CCCCOC(=O)C(C)CC (stereo unspecified) , state the outcome it received in this test. inactive

###

# Method Notes: qHTS assay to identify small molecule antagonists of the farnesoid-X-receptor (FXR) signaling pathway - cell viability counter screen (AID 743221); also: nearly all actives have a fitted effect of over 50% in size
# Test Parameters: FXR-bla HEK293T viability, CellTiter-Glo luminescence, 16 h; series mostly up to 62.6 µM
Results filed as inconclusive are left out. Calls of active or inactive are those of the source. Calls follow the shape of the dose curve; as a rule, active = well fitted cell-killing curve with a large enough effect in the repeat runs (not every such curve was filed as active); inconclusive = weak or mixed curves, or effect the other way; inactive = no such curve, though single readings can be large or run the other way.
Respond using exactly one of the listed classes: active, inactive

Given O=C(O)CCCCCCC(=O)O , state the outcome it received in this test. inactive

Given CCC(=O)OCCc1ccccc1 , state the outcome it received in this test. inactive

Given CCc1ccc(O)c(C(C)(C)C)c1 , state the outcome it received in this test. inactive

Given CCCCCCCCCC(=O)N(C)C , state the outcome it received in this test. inactive

Given C=CC(=O)OCCC#N , state the outcome it received in this test. inactive

Given Cc1ccc(-n2[nH]c(C)c(N=Nc3cccc(-c4cccc(C(=O)O)c4)c3O)c2=O)cc1C , state the outcome it received in this test. inactive

Given Cc1cc2c(C(C)C)c(O)c(O)c(C=O)c2c(O)c1-c1c(C)cc2c(C(C)C)c(O)c(O)c(C=O)c2c1O , state the outcome it received in this test. active

Given CC1CCCNC1 (centres undefined) , state the outcome it received in this test. inactive

Given O=C1c2c(O)ccc(O)c2C(=O)c2c(NCCNCCO)ccc(NCCNCCO)c21 , state the outcome it received in this test. inactive

Given CC(C)(C)C1=CC(=O)C=C(C(C)(C)C)C1=O , state the outcome it received in this test. inactive

Given Brc1ccccc1-c1ccccc1 , state the outcome it received in this test. inactive

Given CC(=O)Nc1ccc(O)cc1 , state the outcome it received in this test. inactive

Given CCOC(=O)COc1ccc(C)cc1 , state the outcome it received in this test. inactive

Given CCN(CC)CCOc1ccc(C(O)(Cc2ccc(Cl)cc2)c2ccc(C)cc2)cc1 (centres undefined) , state the outcome it received in this test. active

Given COCC(=O)O[C@]1(CCN(C)CCCc2nc3ccccc3[nH]2)CCc2cc(F)ccc2[C@@H]1C(C)C , state the outcome it received in this test. active

Given Cc1occc1SSc1ccoc1C , state the outcome it received in this test. inactive

Given O=C(O)CCn1c2c(c3ccccc31)C[C@H](NS(=O)(=O)c1ccc(F)cc1)CC2 , state the outcome it received in this test. inactive

Given CCc1cccc(C)c1 , state the outcome it received in this test. inactive

Given CC(C)OC(=O)c1cc(C(=O)OC(C)C)cc([N+](=O)[O-])c1 , state the outcome it received in this test. inactive

Given CC(NCCC(c1ccccc1)c1ccccc1)c1ccccc1 (centres undefined) , state the outcome it received in this test. inactive

Given C=CC(=O)OCCOCC(CC)(COCCOC(=O)C=C)COCCOC(=O)C=C , state the outcome it received in this test. active

Given O=C1NC2CCCCN2C12CCN(CCCN1c3ccccc3CCc3ccc(Cl)cc31)CC2 (centres undefined) , state the outcome it received in this test. active

Given Cc1ccc2ccc3cccc4ccc1c2c34 , state the outcome it received in this test. inactive

Given CCCCCCCC/C=C\CCCCCCCC(=O)OCCOC(=O)CCCCCCC/C=C\CCCCCCCC , state the outcome it received in this test. inactive

Given Clc1ccccc1CN1CCc2sccc2C1 , state the outcome it received in this test. inactive

Given CCCSS/C(CCO)=C(\C)N(C=O)Cc1cnc(C)nc1N , state the outcome it received in this test. inactive

Given CC=O , state the outcome it received in this test. active

Given Oc1c(Br)cc(Br)c2cccnc12 , state the outcome it received in this test. inactive

Given [O]=[Zr] , state the outcome it received in this test. inactive

Given Nc1ccc2cc3ccc(N)cc3nc2c1 , state the outcome it received in this test. inactive

Given CCCCCCCCCCCCCOP(=O)(O)O , state the outcome it received in this test. inactive

Given CC(C)(C)CC(C)(C)c1ccccc1O , state the outcome it received in this test. active

Given C=CC(=O)OCC(O)COc1ccccc1 (centres undefined) , state the outcome it received in this test. inactive

Given O=C(O)CC(=O)O , state the outcome it received in this test. inactive

Given CCOC(=O)[C@@](C)(N)Cc1ccc(O)c(O)c1 , state the outcome it received in this test. inactive

Given ClC/C=C\CCl , state the outcome it received in this test. inactive

Given CNC(=O)c1cc(Oc2ccc(NC(=O)Nc3ccc(Cl)c(C(F)(F)F)c3)cc2)ccn1 , state the outcome it received in this test. active

Given C1CC(COCC2CO2)CCC1COCC1CO1 (centres undefined) , state the outcome it received in this test. inactive

Given c1cc(OCC2CO2)cc(OCC2CO2)c1 (centres undefined) , state the outcome it received in this test. inactive

Given COc1cc(C=C2CCC/C(=C\c3ccc(O)c(OC)c3)C2=O)ccc1O , state the outcome it received in this test. active

Given C[C@]12CC[C@H]3C(=CCc4cc(O)ccc43)[C@@H]1CCC2=O , state the outcome it received in this test. inactive

Given Cc1ccc(N)cc1O , state the outcome it received in this test. inactive

Given CCCCCCCCCCCCCCNCCO , state the outcome it received in this test. inactive

Given CCCCCCOc1ccc(O)cc1 , state the outcome it received in this test. inactive

Given Cc1c(-c2ccc(O)cc2)n(Cc2ccc(OCCN3CCCCCC3)cc2)c2ccc(O)cc12 , state the outcome it received in this test. active

Given CCCCCCCC/C=C\CCCCCCCC(=O)N(C)CC(=O)O , state the outcome it received in this test. active

Given Nc1cc(Cl)c([N+](=O)[O-])cc1O , state the outcome it received in this test. inactive

Given CN(Cc1cc(Br)cc(Br)c1N)C1CCCCC1 , state the outcome it received in this test. inactive

Given C=C(C)C(=O)OCCC[Si](Cl)(Cl)Cl , state the outcome it received in this test. inactive

Given CCN(CC)CCCN(c1ccccc1)C1Cc2ccccc2C1 , state the outcome it received in this test. inactive

Given O=C(O)Cc1ccc(OCCNC[C@H](O)c2ccccc2)cc1 , state the outcome it received in this test. inactive

Given SCCCCCCCCS , state the outcome it received in this test. inactive

Given Cc1c(C)n(Cc2ccccc2)c2ccc(C(=O)OCCN(C)C)cc12 , state the outcome it received in this test. inactive

Given CCN=C1C=CC(=C(c2ccc(N(CC)CC)cc2)c2ccc(N(CC)CC)cc2)c2ccccc21 , state the outcome it received in this test. active
